# target_entity: T1, human TSLP (human, UniProt Q969D9 29-159)
# T1 construct: also called hTSLP; rhTSLP
# method: SPR
Exercise: for every item that follows, state its recorded kon.

Prompt: Retrieve kon measured for BDG38.083 (antibody, V domains shown, IgG1) VH: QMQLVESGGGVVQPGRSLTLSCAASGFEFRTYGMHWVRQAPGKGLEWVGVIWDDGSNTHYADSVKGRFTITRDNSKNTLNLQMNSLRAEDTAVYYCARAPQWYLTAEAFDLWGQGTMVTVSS VL: SYILTQPPSVSVAPGQTATITCGGNLIGAKLVHWYQQKPGQAPVLVIYDDSDRPSRIPERFSGSNIGNTATLTISDVEEGDEADYYCQVWDYSSDTMVFGGGTKLTVL and print it.
Response: 2.45e+06 M⁻¹ s⁻¹

Prompt: Retrieve kon measured for BDG33.023 (antibody, V domains shown, standard IgG; also called BGD33.023; BDG33.0023) VH: QMQLVESGGGVVQPGRSLRLSCAASGFAFRTYGMHWVRQAPGKGLEWVAVIWYDGSNTHYADSVKGRFTITRDNSKNTLNLQMNSLRAEDTAVYYCARAPQWYLSAEAFDLWGQGTMVTVSS VL: SYVLTQPPSVSVAPGQTARITCGGNLIGSKLVHWYQQKPGQAPVLVVYDDSDRPSRIPERFSGSNSGNTATLTISRVEAGDEADYYCQVWDHSSDHVVFGGGTKLTVL and print it.
Response: 1.09e+06 M⁻¹ s⁻¹

Prompt: Retrieve kon measured for BDG38.082 (antibody, V domains shown, IgG1) VH: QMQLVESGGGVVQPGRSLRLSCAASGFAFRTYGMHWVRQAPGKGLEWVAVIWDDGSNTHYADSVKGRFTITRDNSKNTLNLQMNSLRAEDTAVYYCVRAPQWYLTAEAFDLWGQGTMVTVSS VL: SYVLTQPPSVSVAPGETATITCGGNMIGGYLVHWYQQKPGQAPVLVIYDDVDRPDRIPERFSGSNSGNTATLTISRVEAGDEADYYCQVWDHDTNQVVFGGGTKLTVL and print it.
Response: 2.56e+06 M⁻¹ s⁻¹

These entries and their values trace back to patent US20240059769A1.
